These measurements were taken from ChEMBL document CHEMBL3860079.

TARGET OF ASSAY: Histone deacetylase 2 (Homo sapiens)
Sequence (Q92769 whole entry): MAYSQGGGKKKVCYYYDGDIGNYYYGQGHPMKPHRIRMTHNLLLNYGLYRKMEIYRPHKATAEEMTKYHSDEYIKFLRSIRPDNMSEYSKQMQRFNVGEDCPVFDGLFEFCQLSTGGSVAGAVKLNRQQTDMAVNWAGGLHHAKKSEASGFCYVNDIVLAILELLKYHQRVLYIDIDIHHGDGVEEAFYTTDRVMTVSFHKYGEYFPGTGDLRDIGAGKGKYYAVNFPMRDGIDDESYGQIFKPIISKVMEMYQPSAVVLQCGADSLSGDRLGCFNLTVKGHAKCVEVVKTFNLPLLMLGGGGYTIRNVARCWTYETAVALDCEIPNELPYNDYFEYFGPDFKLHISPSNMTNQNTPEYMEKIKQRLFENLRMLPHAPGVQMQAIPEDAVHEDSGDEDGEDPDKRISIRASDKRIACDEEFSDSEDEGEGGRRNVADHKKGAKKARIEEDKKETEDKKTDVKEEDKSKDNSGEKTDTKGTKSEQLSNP
TEST DESCRIPTION: Inhibition of HDAC2 in human MDA-MB-231 cells assessed as inhibition of deacetylation activity using Fluor-de-Lys as substrate measured after 15 mins by fluorimetric assay
pIC50: −log10 of the molar value.
EXPERIMENTAL READOUT: pIC50

# SMILES STRING, TARGET OF ASSAY, READOUT VALUE
records = [
    ("C[C@@H](N)C(=O)NCc1nnc(-c2ccccc2)o1", "Histone deacetylase 2 (Homo sapiens)", 6.87),
]

====

TARGET OF ASSAY: Histone deacetylase 3 (Homo sapiens, UniProt O15379)
Sequence (O15379 whole entry): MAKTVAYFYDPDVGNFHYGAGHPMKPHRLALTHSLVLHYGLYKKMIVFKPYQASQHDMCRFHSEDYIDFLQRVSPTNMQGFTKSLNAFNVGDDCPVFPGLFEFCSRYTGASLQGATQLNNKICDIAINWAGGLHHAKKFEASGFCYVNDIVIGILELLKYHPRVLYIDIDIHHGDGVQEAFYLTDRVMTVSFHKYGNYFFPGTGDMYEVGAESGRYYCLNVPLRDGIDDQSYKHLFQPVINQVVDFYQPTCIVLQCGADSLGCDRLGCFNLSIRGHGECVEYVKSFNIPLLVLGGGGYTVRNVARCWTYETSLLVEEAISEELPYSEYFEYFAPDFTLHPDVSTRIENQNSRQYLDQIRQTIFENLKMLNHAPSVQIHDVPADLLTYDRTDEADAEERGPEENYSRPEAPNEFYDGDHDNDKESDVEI
TEST DESCRIPTION: Inhibition of HDAC3 in human MDA-MB-231 cells assessed as inhibition of deacetylation activity using Fluor-de-Lys as substrate measured after 15 mins by fluorimetric assay
pIC50: −log10 of the molar value.

# SMILES STRING, pIC50
rows = [
    ("C[C@@H](N)C(=O)NCc1nnc(-c2ccccc2)o1", "< 5.00"),
]

====

Each entry below carries its recorded IC50.
TARGET OF ASSAY: Histone deacetylase 8 (Homo sapiens)
Sequence (Q9BY41 whole entry): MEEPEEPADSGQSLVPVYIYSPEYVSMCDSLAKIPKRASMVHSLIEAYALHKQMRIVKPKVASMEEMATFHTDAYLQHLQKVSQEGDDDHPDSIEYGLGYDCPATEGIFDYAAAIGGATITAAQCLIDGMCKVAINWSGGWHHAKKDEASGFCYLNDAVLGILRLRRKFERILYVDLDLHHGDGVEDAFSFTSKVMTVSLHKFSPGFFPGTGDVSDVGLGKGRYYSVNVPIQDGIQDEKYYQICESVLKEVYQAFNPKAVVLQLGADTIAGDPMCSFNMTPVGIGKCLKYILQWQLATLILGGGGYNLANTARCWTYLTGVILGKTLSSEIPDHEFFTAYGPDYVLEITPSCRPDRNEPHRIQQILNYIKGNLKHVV
TEST DESCRIPTION: Inhibition of recombinant human full length GST-tagged HDAC8 expressed in Escherichia coli DH5alpha (DE3) assessed as inhibition of deacetylation activity using Fluor-de-Lys as substrate measured after 15 mins by fluorimetric assay

# SMILES STRING, IC50 [nM]
rows = [
    ("Cc1ccc(-c2nnc(CNC(=O)[C@@H](C)N)o2)cc1", 121),
    ("C[C@@H](N)C(=O)NCc1nnc(-c2ccc(F)cc2)o1", 116),
    ("COc1ccc(-c2nnc(CNC(=O)CN)o2)cc1", 142),
    ("COc1ccc(-c2nnc(CNC(=O)[C@@H](C)N)o2)cc1", 153),
    ("C[C@@H](N)C(=O)NCc1nnc(-c2ccc([N+](=O)[O-])cc2)o1", 127),
    ("Cc1ccc(-c2nnc(CNC(=O)CN)o2)cc1", 139),
    ("NCC(=O)NCc1nnc(-c2ccccc2)o1", 155),
    ("NCC(=O)NCc1nnc(-c2ccc([N+](=O)[O-])cc2)o1", 134),
    ("NCC(=O)NCc1nnc(-c2ccc(F)cc2)o1", 135),
]
